molecular target: CFTR-mediated chloride transport in human intestinal epithelial enteroid cells (Homo sapiens, UniProt P13569); experiment: Membrane potential dye, Enteroid Assay A; format: cell-based; conditions: Enteroid Assay A
Sequence (P13569 with tags, fused parts or gaps DEL508-508): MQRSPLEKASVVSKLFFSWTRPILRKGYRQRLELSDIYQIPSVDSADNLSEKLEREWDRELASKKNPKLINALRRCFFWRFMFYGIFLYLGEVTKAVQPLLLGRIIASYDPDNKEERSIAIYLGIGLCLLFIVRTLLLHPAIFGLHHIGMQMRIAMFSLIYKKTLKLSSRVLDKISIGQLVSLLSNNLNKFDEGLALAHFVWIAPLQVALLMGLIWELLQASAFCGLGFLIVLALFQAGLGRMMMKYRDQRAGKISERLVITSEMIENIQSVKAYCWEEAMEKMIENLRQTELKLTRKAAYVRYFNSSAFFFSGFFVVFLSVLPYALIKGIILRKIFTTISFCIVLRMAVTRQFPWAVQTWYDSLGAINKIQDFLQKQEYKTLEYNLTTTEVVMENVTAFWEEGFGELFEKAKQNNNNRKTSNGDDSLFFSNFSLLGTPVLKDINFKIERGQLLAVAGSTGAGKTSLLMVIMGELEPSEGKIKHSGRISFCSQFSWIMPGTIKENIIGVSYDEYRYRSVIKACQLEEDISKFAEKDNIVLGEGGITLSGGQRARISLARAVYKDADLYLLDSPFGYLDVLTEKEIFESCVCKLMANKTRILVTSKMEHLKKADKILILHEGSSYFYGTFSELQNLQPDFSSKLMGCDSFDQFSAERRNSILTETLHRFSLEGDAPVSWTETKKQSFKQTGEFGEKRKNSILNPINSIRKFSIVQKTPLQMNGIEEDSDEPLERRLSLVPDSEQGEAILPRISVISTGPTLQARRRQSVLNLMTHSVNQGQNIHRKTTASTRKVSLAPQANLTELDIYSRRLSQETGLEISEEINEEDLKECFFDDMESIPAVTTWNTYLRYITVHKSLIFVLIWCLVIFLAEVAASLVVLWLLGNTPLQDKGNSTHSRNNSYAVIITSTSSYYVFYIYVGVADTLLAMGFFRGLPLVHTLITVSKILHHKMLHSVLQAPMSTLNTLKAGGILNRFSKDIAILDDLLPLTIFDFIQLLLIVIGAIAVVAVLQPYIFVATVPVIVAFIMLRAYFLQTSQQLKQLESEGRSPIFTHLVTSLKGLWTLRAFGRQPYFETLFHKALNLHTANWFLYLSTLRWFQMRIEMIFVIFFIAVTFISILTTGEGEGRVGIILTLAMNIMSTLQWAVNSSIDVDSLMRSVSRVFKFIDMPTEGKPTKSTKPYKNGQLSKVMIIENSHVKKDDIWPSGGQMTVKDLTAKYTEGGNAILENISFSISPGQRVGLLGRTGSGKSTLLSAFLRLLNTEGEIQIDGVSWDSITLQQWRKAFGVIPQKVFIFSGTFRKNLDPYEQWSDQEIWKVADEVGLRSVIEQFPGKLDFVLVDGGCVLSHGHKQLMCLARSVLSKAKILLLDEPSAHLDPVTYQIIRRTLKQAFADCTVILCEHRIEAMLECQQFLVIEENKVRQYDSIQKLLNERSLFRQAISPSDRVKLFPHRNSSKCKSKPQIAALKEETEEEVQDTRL
experimental_endpoint: Ent. A Max Activity (%)

compound	Ent. A Max Activity (%)
Cc1cccc(C)c1-c1cc2nc(n1)NS(=O)(=O)c1cccc(c1)C(=O)N1CCN(CCC(C)(C)C)CC(O2)C1CC(C)C (single isomer, unassigned)	+++ (+++ is >600%)
Cc1cccc(C)c1-c1cc2nc(n1)NS(=O)(=O)c1cccc(c1)C(=O)N1CCN(C3CC4(CC4)C3)C[C@H](C1)O2	+++ (+++ is >600%)
Cc1cccc(C)c1-c1cc2nc(n1)NS(=O)(=O)c1cccc(c1)C(=O)N1CCN(CC(C)(C)C)C[C@H](C1)O2	+++ (+++ is >600%)
Cc1cccc(C)c1-c1cc2nc(n1)NS(=O)(=O)c1cccc(c1)C(=O)N1CCN(Cc3ccccc3)C[C@@H](O2)[C@H]1CC(C)C	+++ (+++ is >600%)
Cc1cccc(C)c1-c1cc2nc(n1)NS(=O)(=O)c1cccc(c1)C(=O)N1C[C@@H](CN(CC(F)(F)F)C[C@@H]1CC(C)C)O2	+ (+ is <30%)
Cc1cccc(C)c1-c1cc2nc(n1)NS(=O)(=O)c1cccc(c1)C(=O)N1C[C@@H](CN(C)C[C@@H]1CCC(C)C)O2	++ (++ is 30-60%)
Cc1cccc(C)c1-c1cc2nc(n1)NS(=O)(=O)c1cccc(c1)C(=O)N1CCN(Cc3ccccc3)CC(O2)C1CC(C)C (single isomer, unassigned) [Compound 90]	+++ (+++ is >600%)
Cc1cccc(C)c1-c1cc2nc(n1)NS(=O)(=O)c1cccc(c1)C(=O)N1Cc3cc(C(C)(C)C)ccc3C(C1)O2 (stereo not drawn) [Compound 182]	+ (+ is <30%)

Prompt line: Fill in: Ent. A Max Activity (%) of Cc1cccc(C)c1-c1cc2nc(n1)NS(=O)(=O)c1cccc(c1)C(=O)N1C[C@@H](CN(C(=O)OC(C)(C)C)C[C@@H]1CCC(C)C)O2 is ___
Response line: ++ (++ is 30-60%)

Prompt line: Fill in: Ent. A Max Activity (%) of Cc1cccc(C)c1-c1cc2nc(n1)NS(=N)(=O)c1cccc(c1)C(=O)N1CCN(CCC(C)(C)C)C[C@H](C1)O2 (single isomer, unassigned) [Compound 245] is ___
Response line: ++ (++ is 30-60%)

Prompt line: Fill in: Ent. A Max Activity (%) of Cc1cccc(C)c1-c1cc2nc(n1)NS(=O)(=O)c1cccc(c1)C(=O)N1CCN(C3CCC3)C[C@H](C1)O2 is ___
Response line: ++ (++ is 30-60%)

Prompt line: Fill in: Ent. A Max Activity (%) of Cc1cccc(C)c1-c1cc2nc(n1)NS(=O)(=O)c1cccc(c1)C(=O)N1C[C@@H](CN(C(=O)OC(C)(C)C)C[C@H]1C(C)C)O2 is ___
Response line: +++ (+++ is >600%)
